Can you tell me Post-Emergence Test SETFA percentage damage (five-point scale) for the items I'm about to list?
# Test system: Setaria faberi (SETFA)
# Assay name: Post-Emergence Test (herbicidal, glasshouse pots)
# Type: in vivo
# Recorded conditions: rate 250 g/ha; evaluated after 13 days

Exam item: Query (compound): CCn1c(Oc2ccc(F)nc2)cc(=O)c(C(=O)O)c1-c1ccc(Cl)c(Cl)c1 [Compound 52] ; field requested: Post-Emergence Test SETFA percentage damage (five-point scale)
Marked response: 4 (4=61-80%)

Exam item: Query (compound): CCn1c(Oc2ccc(S(C)(=O)=O)cc2)cc(=O)c(C(=O)O)c1-c1ccc(Cl)c(Cl)c1 [Compound 40] ; field requested: Post-Emergence Test SETFA percentage damage (five-point scale)
Marked response: 2 (2=21-40%)

Exam item: Query (compound): CCn1c(Oc2cc(Cl)n(C)n2)cc(=O)c(C(=O)O)c1-c1ccc(Cl)c(Cl)c1 [Compound 60] ; field requested: Post-Emergence Test SETFA percentage damage (five-point scale)
Marked response: 1 (1=0-20%)

Exam item: Query (compound): CCn1cc(Oc2cc(=O)c(C(=O)O)c(-c3ccc(Cl)c(Cl)c3)n2CC)cn1 [Compound 59] ; field requested: Post-Emergence Test SETFA percentage damage (five-point scale)
Marked response: 3 (3=41-60%)

Exam item: Query (compound): CCc1cc(Oc2cc(=O)c(C(=O)O)c(-c3ccc(Cl)c(Cl)c3)n2CC)no1 [Compound 39] ; field requested: Post-Emergence Test SETFA percentage damage (five-point scale)
Marked response: 1 (1=0-20%)

Exam item: Query (compound): CCn1c(Oc2ccc3nccnc3c2)cc(=O)c(C(=O)O)c1-c1ccc(Cl)c(Cl)c1 [Compound 42] ; field requested: Post-Emergence Test SETFA percentage damage (five-point scale)
Marked response: 1 (1=0-20%)

Exam item: Query (compound): CCn1ccc(Oc2cc(=O)c(C(=O)O)c(-c3ccc(Cl)c(Cl)c3)n2CC)n1 [Compound 57] ; field requested: Post-Emergence Test SETFA percentage damage (five-point scale)
Marked response: 4 (4=61-80%)

Exam item: Query (compound): CCn1c(Oc2ccn(C3CC3)n2)cc(=O)c(C(=O)O)c1-c1ccc(Cl)c(Cl)c1 [Compound 58] ; field requested: Post-Emergence Test SETFA percentage damage (five-point scale)
Marked response: 3 (3=41-60%)

Where these numbers come from: patent US20250324971A1
